molecular target: G-protein coupled receptor 35 (Homo sapiens, UniProt Q9HC97); assay: Agonist activity at human GPR35 receptor expressed in CHO-K1 cells assessed as desensitization of zaprinast-induced DMR response preincubated for 1 hr followed by zaprinast stimulation by DMR desensitization assay; type: functional, cell-based
Sequence (Q9HC97 whole entry): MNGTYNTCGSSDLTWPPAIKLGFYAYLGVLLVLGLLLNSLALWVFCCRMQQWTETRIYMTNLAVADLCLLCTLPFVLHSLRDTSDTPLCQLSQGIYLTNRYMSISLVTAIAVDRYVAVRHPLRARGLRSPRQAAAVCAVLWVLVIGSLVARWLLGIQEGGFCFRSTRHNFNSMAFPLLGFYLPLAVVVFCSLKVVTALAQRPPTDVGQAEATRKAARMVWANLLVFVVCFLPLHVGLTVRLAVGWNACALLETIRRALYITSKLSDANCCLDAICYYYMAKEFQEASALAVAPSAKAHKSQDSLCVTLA
Observed property: log10 IC50 (log10 of the value in nM)
Kindly note that the scale is log10 and the underlying IC50 is in nM.

Solved entries (count: 4):
Cc1c2[nH]c(C(=O)O)cc(=O)c2cc2c(=O)cc(C(=O)O)[nH]c12 ... -0.13
COc1cc(C(=O)O)nc2c(C)c3nc(C(=O)O)cc(OC)c3cc12 ... 0.79
COc1ccc(-c2cc3cc(C(=O)O)c(=O)oc3c3cc(C(=O)O)c(=O)oc23)cc1 ... 0.39
Cc1c2nc(C(=O)O)cc(Cl)c2cc2c(Cl)cc(C(=O)O)nc12 ... 0.55

Please look at the following molecule next.
Record summary for O=C(O)c1cc2c(oc1=O)c(Br)cc1cc(-c3nnn[nH]3)c(=O)oc12 : reported log10 IC50 = 1.20
